# Test system: CAKI-1 renal
# protocol-details: NCI tumour cell line growth inhibition, 48 h
Kindly supply the reported TGI values for the records listed here.

Examples with answers:
O=C(CC1(O)C(=O)Nc2c(Cl)cc(Cl)cc21)c1cccc([N+](=O)[O-])c1 (stereo unspecified)    > 93.2 µM
CN(C)c1ccc(/C=C2\CCc3ccccc3C2=O)cc1Br    > 100 µM

Okay, here is my list. What is TGI for each of these?
1. O=c1oc2ccccc2c(-c2ccc(O)cc2)c1Oc1ccccc1
2. CC(C)CCCC(C)C1CCC2C3CC([N+](=O)[O-])=C4CC(O)CCC4(C)C3CCC12C (stereo unspecified)
3. O=C(NO)c1ccc(CNc2cccc3nc(C4CC4)n(-c4ccccc4)c(=O)c23)cc1
4. CN1S(=O)(=O)N(C)P12(N=P(CP(=NP13(N(C)S(=O)(=O)N1C)N(C)S(=O)(=O)N3C)(c1ccccc1)c1ccccc1)(c1ccccc1)c1ccccc1)N(C)S(=O)(=O)N2C
5. CN(C)CCCC1(c2ccc(F)cc2)OCc2cc(-c3csc4ccccc34)ccc21 (stereo unspecified)

1. > 75.7 µM
2. 66 µM
3. 7.51 µM
4. > 100 µM
5. 3.05 µM

====

For each of the molecules below, state its GI50.
# Test system: HCT-15 colon
# protocol-details: NCI tumour cell line growth inhibition, 48 h

Solved cases below.
Cc1ccc(-c2nc([P+](c3ccccc3)(c3ccccc3)c3ccccc3)c(N3CCOCC3)o2)cc1    3.09 µM
CCOC(=O)c1c(Cl)c2c(n1Cc1ccccc1)-c1oncc1CCC2    3.39 µM
COc1ccc([C@@H]2[C@@H](Oc3ccccc3)C(=O)N2c2cc(OC)c(OC)c(OC)c2)cc1F    0.155 µM

Continue with the molecule presented below.
Reported HCT-15 colon GI50 for item CNS(=O)(=O)Nc1nccc(Cc2c(C)c3ccc(Oc4ncccn4)cc3oc2=O)c1F was > 25.7 µM

====

# System: HT29 colon
# protocol-details: NCI tumour cell line growth inhibition, 48 h; in the data active = GI50 below about 0.43 µM; inactive = the rest
// one of t (active), f (inactive), no free text

CN(c1ccccc1)c1c2ccccc2nc2[nH]c3ccccc3c12    f

For COc1cc2c(Oc3ccc(-c4cnc(Nc5ccc(F)cc5)n(C)c4=O)cc3F)ccnc2cc1OCCCN1CCOCC1 , which call appears in the assay record?
t

GET /call?item= O=C1NC(=O)N(S(=O)(=O)c2cc(C(=O)Nc3ccc(Cl)cc3)c(Cl)cc2S)S(=O)(=O)N1 returns the recorded outcome of this test.
f

Which outcome was assigned to O=C1c2ccccc2-c2c1c1c(O)cccc1n2Cc1ccccc1 in this test?
f

Field: outcome | Entry: CN(C)[C@@H]1C(=O)C(C(=O)NCc2nc3[nH]cnc(=S)c3[nH]2)=C(O)[C@@]2(O)C(=O)C3=C(O)c4c(O)cccc4[C@@](C)(O)[C@H]3C[C@@H]12
f

Could you please tell me the result logged for C#CCCCCCC(=O)N[C@H]1C=C[C@@H]2/C=C(C)/C=C/[C@@H](C)[C@H]([C@H](C)[C@H](O)[C@@H](C)NC(C)=O)OC(=O)/C=C/C=C(C)\C=C\[C@]2(C)C1 in this assay?
t

Tell me the assay call for COc1ccccc1CNCCCN1C(=O)c2ccc3c4c(ccc(c24)C1=O)C(=O)N(CCCNCc1ccccc1OC)C3=O please.
t

What did the test return for COc1nc(N)nc2nc[nH]c12 ?
f

For COc1cc2c(cc1C)NC(=O)/C2=C\c1ccc(Oc2ccccc2)cc1 , which call appears in the assay record?
f
